test system: P. falciparum 3D7 strain (chloroquine sensitive); assay: Growth inhibition of blood-stage P. falciparum 3D7 by microscopy; assay type: cell-based, Plasmodium falciparum; settings: Plasmodium falciparum, 3D7, read-out: IC50 for growth inhibition of parasites
pIC50: −log10 of the molar value.
PROPERTY LABEL: pIC50

INSERT INTO results (molecular_string, endpoint_value) VALUES
  ('COc1cc(C=CC(=O)CC(=O)C=Cc2ccc(O)c(OC)c2)ccc1O', 5.30);
